assay: Pharmacokinetic profiling in 3731 orthotopic GBM-bearing mice; type: in vivo; settings: Athymic Nude, mouse, tumor-grafted brain hemisphere / plasma, oral, 100 mg/kg
reported endpoint: Kp

1. CCOc1cc(C(C)(C)C)ccc1C1=N[C@@](C)(c2ccc(Cl)cc2)[C@@](C)(c2ccc(Cl)cc2)N1C(=O)N1CCN(CCCS(C)(=O)=O)CC1 [RG7112]	0.198

Every entry's value here was drawn from paper PMC4842012.
